This section presents molecules with their documented IC50 values.
Biological target: AChE (electric eel source) (Electrophorus electricus, UniProt O42275)
Sequence (O42275 24-633): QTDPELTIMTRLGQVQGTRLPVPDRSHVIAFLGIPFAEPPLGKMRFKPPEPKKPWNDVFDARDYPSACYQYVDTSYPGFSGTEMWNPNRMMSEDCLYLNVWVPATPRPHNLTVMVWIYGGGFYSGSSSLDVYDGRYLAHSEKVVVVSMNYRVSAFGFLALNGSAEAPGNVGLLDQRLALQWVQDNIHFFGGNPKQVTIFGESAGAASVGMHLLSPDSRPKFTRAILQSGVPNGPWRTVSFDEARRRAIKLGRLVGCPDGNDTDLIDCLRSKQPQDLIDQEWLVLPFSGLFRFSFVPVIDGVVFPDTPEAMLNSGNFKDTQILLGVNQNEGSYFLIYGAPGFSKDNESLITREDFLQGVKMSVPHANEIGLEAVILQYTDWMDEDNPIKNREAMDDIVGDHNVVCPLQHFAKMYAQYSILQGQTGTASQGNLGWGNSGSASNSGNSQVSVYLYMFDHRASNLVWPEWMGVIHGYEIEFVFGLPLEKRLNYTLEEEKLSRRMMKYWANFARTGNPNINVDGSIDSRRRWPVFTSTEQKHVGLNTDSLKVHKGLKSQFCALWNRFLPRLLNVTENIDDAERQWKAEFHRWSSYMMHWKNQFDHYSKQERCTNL
Assay: biochemical
Settings: evaluated up to 100 µg/mL; means ± SEM of three measurements; read-out: AChE IC50 (converted)

Sample answers from the record:
{"columns": ["molecule", "IC50"],
 "data": [
  ["CC1(C)CCC2(C(=O)OC3OC(CO)C(O)C(O)C3O)CCC3(C)C(=CCC4C5(C)CC(O)C(O)C(C)(C)C5CCC43C)C2C1O (stereo not drawn) [Compound 9, 24-deoxysericoside]", "> 154 µM"],
  ["CC1(C)CC[C@]2(C(=O)O[C@@H]3O[C@H](CO)[C@@H](O)[C@H](O)[C@H]3O)CC[C@]3(C)C(=CC[C@@H]4[C@@]5(C)C[C@@H](O)[C@H](O)[C@@](C)(CO)[C@@H]5[C@H](O)C[C@]43C)[C@@H]2C1 [Compound 11, chebuloside II]", "> 150 µM"]
]}

Kindly review the next molecule as well.
stdin: Print AChE (electric eel source) (Electrophorus electricus, UniProt O42275) IC50 for CC1OC(Oc2c(-c3cc(O)c(O)c(O)c3)oc3cc(O)cc(O)c3c2=O)C(O)C(O)C1O (stereo not drawn) [Compound 5, myricetin-3-O-rhamnoside] .
stdout: > 215 µM
